test_system: T1, VEGFR-1-Fc (UniProt P17948 27-338)
T1 construct: domain: first three Ig domains; expressed in Drosophila S2 cells, purified on Protein A sepharose; also called VEGFR-1-Fc fusion protein; not shown: Fc fragment from the Signal-pIgPlus vector
T1 sequence (P17948 27-338): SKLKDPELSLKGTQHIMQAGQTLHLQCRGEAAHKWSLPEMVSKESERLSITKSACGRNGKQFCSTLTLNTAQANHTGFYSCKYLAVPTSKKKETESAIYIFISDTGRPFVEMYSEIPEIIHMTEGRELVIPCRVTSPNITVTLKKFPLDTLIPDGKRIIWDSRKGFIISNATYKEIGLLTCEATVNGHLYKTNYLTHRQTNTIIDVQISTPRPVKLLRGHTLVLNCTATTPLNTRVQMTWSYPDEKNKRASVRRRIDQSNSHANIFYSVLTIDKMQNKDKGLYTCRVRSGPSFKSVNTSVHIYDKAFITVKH
experiment_summary: receptor-Fc IP
Description: The binding assay procedure was identical to the immunoprecipitation using pentahistidine antibody described in Example 2, apart from the composition of the immunoprecipitation (IP) mixes. […]
property_name: binding result

A selection of reference data follows.
[[record]]
binder = "62-11 (ligand) GQNHHEVVKFMDVYQRSYCHPREVCIDVGKEFGVATNTFFKPPCVSVYRCGGCCNSEGLQCVPTEESNITMQIMRITVPLSQGPKPVTISFLQHNKCECRPKKD"
value_measured = "no binding"

[[record]]
binder = "71-7 (ligand) GQNHHEVVKSIDNEWRKTQCMPREVCIDVGKEYPDEIEYIFKPSCVPLMRCGGCCNSEGLQCVPTEESNITMQIMRIKPHQGQHIGEMSFANHTSCRCMSKLD"
value_measured = "no binding"

[[record]]
binder = "44-15 (ligand) AHYNTEILKFMDVYQRSYCHPREVCIDVGKEFGVATNTFFKPSCVPLMRCGGCCNSEGLQCVPTEESNITMQIMRITVPLSQGPKPVTISFANHTSCRCMSKLD"
value_measured = "no binding"

[[record]]
binder = "11-5 (ligand) GQNHHEVVKFMDVYQRSYCHPIETLVDIFQEYPDEIEYIFKPSCVPLMRCGGCCNDEGLECVPTEESNITMQIMRIKPHQGQHIGEMSFANHTSCRCMSKLD"
value_measured = "binds"

[[record]]
binder = "11-15 (ligand) GQNHHEVVKFMDVYQRSYCHPIETLVDIFQEYPDEIEYIFKPSCVPLMRCGGCCNSEGLQCVPTEESNITMQIMRITVPLSQGPKPVTISFANHTSCRCMSKLD"
value_measured = "binds"


Can you share its binding result? I mean this binder: 24-15 (ligand) AHYNTEILKSIDNEWRKTQCMPREVCIDVGKEFGVATNTFFKPSCVPLMRCGGCCNSEGLQCVPTEESNITMQIMRITVPLSQGPKPVTISFANHTSCRCMSKLD
no binding

Can you share its binding result? I mean this binder: 32-16 (ligand) GQNHHEVVKSIDNEWRKTQCMPIETLVDIFQEFGVATNTFFKPPCVSVYRCGGCCNSEGLQCMNTSTSYLSKTLFEITVPLSQGPKPVTISFANHTSCRCMSKLD
no binding

Can you share its binding result? I mean this binder: 64-9 (ligand) GQNHHEVVKFMDVYQRSYCHPREVCIDVGKEFGVATNTFFKPSCVPLMRCGGCCNDEGLECVPTEESNITMQIMRITVPLSQGPKPVTISFLQHNKCECRPKKD
no binding

Can you share its binding result? I mean this binder: 13-8 (ligand) GQNHHEVVKFMDVYQRSYCHPIETLVDIFQEYPDEIEYIFKPPCVSVYRCGGCCNSEGLQCMNTSTSYLSKTLFEIKPHQGQHIGEMSFANHTSCRCMSKLD
no binding

Can you share its binding result? I mean this binder: 12-11 (ligand, also called super-VEGF) GQNHHEVVKFMDVYQRSYCHPIETLVDIFQEFGVATNTFFKPPCVSVYRCGGCCNSEGLQCVPTEESNITMQIMRITVPLSQGPKPVTISFLQHNKCECRPKKDLVFEQKLISEEDLNSAVDHHHHHH
binds
